Data provenance: ChEMBL document CHEMBL1806424

We begin with a simple list: items and their reported MIC.
Test system: Aspergillus flavus
Experiment: Antifungal activity against Aspergillus flavus
Format: functional

Would you mind telling me what MIC value was observed for CCOC(=O)C1=C(C)NC(=S)NC1c1ccc(NC(=O)Nc2ccccc2C(F)(F)F)cc1 (stereo not given) ?
30 µg/mL

Others:
Fill in the blank: the reported MIC of CCOC(=O)C1=C(C)NC(=S)NC1c1ccc(NC(=O)Nc2c(F)cccc2Cl)cc1 (stereo not given) is ____.
90 µg/mL

One more molecule: CCOC(=O)C1=C(C)NC(=S)NC1c1ccc(NC(=O)Nc2ccc(C(F)(F)F)cc2Cl)cc1 (stereo not given)
35 µg/mL

Consider next the molecule CCOC(=O)C1=C(C)NC(=S)NC1c1ccc(NC(=O)Nc2ccc(OC)cc2)cc1 (stereo not given) in the same way.
30 µg/mL

Same again, this time with CCOC(=O)C1=C(C)NC(=S)NC1c1ccc(NC(=O)Nc2c(C)cccc2Cl)cc1 (stereo not given)
40 µg/mL
